Source of measurements: patent EP0908457B1

Each entry below lists one item and its recorded herbicidal effect rating, ECHORC value.
Test system: Echinochloa oryzoides (Ard.) Fritsch.
Test: Preemergence weed control under flooded paddy conditions, ECHORC (Watergrass (Calif.)); note: meaning of each grade not given here
Assay type: in vivo
Details: Rate 0.2500 kg/ha; preemergence weeds, flooded paddy; rated three to four weeks after treatment
Answer field: number only, no words.

The cases that follow already have their herbicidal effect rating, ECHORC on record.
[
  {
    "compound": "CC(Oc1ccccc1-c1nsc2ccc(-n3c(=O)cc(C(F)(F)F)n(C)c3=O)cc12)C(=O)O (stereo not shown)",
    "test.readout": "herbicidal effect rating, ECHORC",
    "numeric.readout": 9.0
  },
  {
    "compound": "C[C@H](Br)[C@H](Br)c1nsc2ccc(-n3c(=O)cc(C(F)(F)F)n(C)c3=O)cc12",
    "test.readout": "herbicidal effect rating, ECHORC",
    "numeric.readout": 8.5
  },
  {
    "compound": "Cn1c(C(F)(F)F)cc(=O)n(-c2ccc3snc(C(=O)Oc4ccc(F)cc4)c3c2)c1=O",
    "test.readout": "herbicidal effect rating, ECHORC",
    "numeric.readout": 2.5
  },
  {
    "compound": "Cc1ccc(OCC(=O)NS(=O)(=O)CCl)c(-c2nsc3ccc(-n4c(=O)cc(C(F)(F)F)n(C)c4=O)cc23)c1",
    "test.readout": "herbicidal effect rating, ECHORC",
    "numeric.readout": 9.0
  },
  {
    "compound": "CN(C)C(=O)c1nsc2ccc(-n3c(=O)cc(C(F)(F)F)n(C)c3=O)cc12",
    "test.readout": "herbicidal effect rating, ECHORC",
    "numeric.readout": 3.0
  },
  {
    "compound": "Cn1c(C(F)(F)F)cc(=O)n(-c2ccc3snc(CO[N+](=O)[O-])c3c2)c1=O",
    "test.readout": "herbicidal effect rating, ECHORC",
    "numeric.readout": 3.0
  },
  {
    "compound": "Cn1c(C(F)(F)F)cc(=O)n(-c2ccc3snc(CSCC(=O)NS(C)(=O)=O)c3c2)c1=O",
    "test.readout": "herbicidal effect rating, ECHORC",
    "numeric.readout": 4.0
  },
  {
    "compound": "CNC.Cn1c(C(F)(F)F)cc(=O)n(-c2ccc3snc(CSCC(=O)O)c3c2)c1=O",
    "test.readout": "herbicidal effect rating, ECHORC",
    "numeric.readout": 5.0
  },
  {
    "compound": "Cn1c(C(F)(F)F)cc(=O)n(-c2ccc3snc(-c4ccccc4OCC(=O)NS(=O)(=O)CCl)c3c2)c1=O",
    "test.readout": "herbicidal effect rating, ECHORC",
    "numeric.readout": 9.0
  },
  {
    "compound": "Cn1c(C(F)(F)F)cc(=O)n(-c2ccc3snc(CN(C(=O)OC(C)(C)C)S(C)(=O)=O)c3c2)c1=O",
    "test.readout": "herbicidal effect rating, ECHORC",
    "numeric.readout": 0.0
  }
]

Identify measured herbicidal effect rating, ECHORC corresponding to `Cn1c(C(F)(F)F)cc(=O)n(-c2ccc3snc(-c4ccccc4OCC(=O)O)c3c2)c1=O`
9.0

Identify measured herbicidal effect rating, ECHORC corresponding to `Cn1c(C(F)(F)F)cc(=O)n(-c2ccc3snc(C(=O)CBr)c3c2)c1=O`
6.0

Identify measured herbicidal effect rating, ECHORC corresponding to `COc1ccc(OC)c(-c2nsc3ccc(-n4c(=O)cc(C(F)(F)F)n(C)c4=O)cc23)c1`
9.0
